Test: Half life in rat liver microsomes
Format: ADME, Microsome
The label is met for half-life below 2 min and not met for half-life equal to or exceeding 2 min.

The examples below pair each entry with its known result.
1) C[C@@H](Nc1nc2c(cnn2C(C)(C)C)c(=O)n1Cc1ccccc1)c1ccc(Cl)cc1 :: not met
2) CC(C)n1ncc2c(=O)n(C)c(N[C@H](C)c3ccc(Cl)cc3)nc21 :: not met

Record CC(C)n1ncc2c(=O)n(Cc3ccc4c(c3)OCO4)c(N[C@H](C)c3ccc(Cl)cc3)nc21 : is its half-life strictly below 2 min? met

* * *

Test: Half life in human liver microsomes
Format: ADME, Microsome
property measured: half-life
Report field: quantity (unit follows the number).

The recorded half-life for C[C@@H](Nc1nc2c(cnn2C(C)(C)C)c(=O)n1Cc1ccc(F)cc1)c1ccc(Cl)cc1 is 15.7 min

* * *

Assay: AUC (0 to t) in Sprague-Dawley rat at 2.5 mg/kg, iv
Assay type: ADME, organism-based
Conditions: in vivo
property measured: AUC(0-t) (ng·h/mL)
One number for each entry, in ng·h/mL.

The recorded AUC(0-t) for C[C@@H](Nc1nc2c(cnn2C(C)(C)C)c(=O)n1Cc1ccc(F)cc1)c1ccc(Cl)cc1 is 1930

* * *

Would you kindly list half-life for each of these compounds?
Test: Half life in rat liver microsomes
Type: ADME, Microsome
Give bare numbers, in min.

Solved entries:
1. CC(C)n1ncc2c(=O)n(Cc3ccccc3)c(N[C@H](C)c3ccc(Cl)cc3)nc21 :: 2.4
2. C[C@@H](Nc1nc2c(cnn2C(C)(C)C)c(=O)n1Cc1ccc2c(c1)OCO2)c1ccc(Cl)cc1 :: 2.1

Next compound, please.
The recorded half-life for C[C@@H](Nc1nc2c(cnn2C2CCCC2)c(=O)n1Cc1ccccc1)c1ccc(Cl)cc1 is 0.5
